I'd appreciate it if you could supply Minimal Inhibitory Concentration (MIC) values for the items below.
System: S. aureus ATCC700699
run.description: MIC by microdilution, S. aureus ATCC700699
Type: cell-based, Staphylococcus aureus
Set-up: unit not given here
recorded.conditions: S. aureus ATCC700699 (MecA positive, glycopeptide resistant), in duplicate

Lookup: // Minimal Inhibitory Concentration (MIC) lookup, key: C[C@@H]1COc2c(N3CCN(C)CC3)c(F)cc3c(=O)c(C(=O)O)cn1c23 [TMB47, Ofloxacin, reference compound]
Found: >8

Lookup: Given CC[P+](CC)(CC)[Au-][c]1nn[nH]c1-c1ccc(C(=O)O)cn1 , state its recorded Minimal Inhibitory Concentration (MIC).
Found: ≤0.06

Lookup: Can you look up the measured Minimal Inhibitory Concentration (MIC) of CC1(C)S[C@@H]2[C@H](NC(=O)[C@H](NC(=O)OCc3cnn[nH]3)c3ccccc3)C(=O)N2[C@H]1C(=O)O for me?
Found: >8
